From: paper doi:10.1101/2022.04.18.488652

Listed here: items and their measured stoichiometry N.
- System tested: the molecule itself
- Measurement notes: SEC
Write no unit; give the number alone.

NaKΔ18 L61T (domain or fragment, B. cereus, UniProt Q81HW2 19-114, looked up) WKDKEFQVLFVLTILTLISGTIFYSTVEGLRPIDALYFSVVTTTTVGDGNFSPQTDFGKIFTILYIFIGIGLVFGFIHKLAVNVQLPSILSNRKKE	4

With those in mind, consider the next protein.
Summary for this protein, NaKΔ18 L35A+L61A (domain or fragment, B. cereus, UniProt Q81HW2 19-114, looked up) WKDKEFQVLFVLTILTAISGTIFYSTVEGLRPIDALYFSVVTATTVGDGNFSPQTDFGKIFTILYIFIGIGLVFGFIHKLAVNVQLPSILSNRKKE : stoichiometry N is 4
